Give measured z-score for each item. Keep answers brief.
- assay-details: mitochondrial membrane potential change in A549 cells, profiling panel, cell-based, JC-1 fluorescence, basal, 24 h, 100 nL (AID 1138);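 also: A549 lung adenocarcinoma cells under basal conditions with no added stimulus; test concentration not given here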
- condition-context: higher = more signal

Exercise: Looking for the measured z-score of CCOC(=O)[C@H]1C/C=C/C[C@H](C(=O)OCC)C(=O)O[C@H]2[C@@H](OC)O[C@H](CO)[C@@H](OC(=O)c3c(OC)cccc3OC)[C@@H]2OC1=O , can you help?
Key: -0.927

Exercise: Please do the same for [N-]=[N+]=NCc1ccccc1C[C@]1(C(N)=O)COC(c2ccc(OCCCO)cc2)=N1 as well.
Key: 0.564

Exercise: What do we get for COC(=O)[C@@]1(Cc2ccc(OC)cc2)[C@H]2c3cc(C(=O)N(C)C)n(C)c3C[C@H]2CN1C(=O)c1ccccc1 ?
Key: 1.05

Exercise: Lookup C=CCNC(=O)[C@@H]1[C@H]2C(=O)O[C@H](c3ccccc3)[C@H](c3ccccc3)N2[C@H](c2ccc(OCCO)cc2)[C@@]12C(=O)Nc1ccc(C#CCC(C(=O)OC)C(=O)OC)cc12
Key: -0.21

Exercise: Another compound to check: CCOC(=O)C1=C[C@@H](C(C)(C)C)N(S(=O)(=O)c2ccc(C)cc2)[C@H]1c1ccc(F)cc1
Key: 3.65

Exercise: Please do the same for COC(=O)C[C@H]1O[C@]2(C(=O)N(C)c3ccccc32)[C@@H](C)[C@@H]1[Si](C)(C)F as well.
Key: 0.435

Exercise: Next: CC(C)N1C(=O)C[C@@](C(=O)NCC(F)(F)F)(c2ccc([N+](=O)[O-])cc2)[C@H]1c1ccc(CO)cc1
Key: -0.279

Exercise: Same for CCCc1cc2c(n1Cc1cc(F)cc(F)c1)C(C)C1CN(C(=O)c3ccccc3)C(C)(C(=O)OC)C21 (configuration not stated)
Key: 1.24

Exercise: Same read-out for CCCCCCc1nc(-c2ccc(OC)nc2)cc2c1[Si](C(C)C)(C(C)C)O[C@H]2c1ccccc1 ?
Key: -0.959

Exercise: Repeat for the following compound: C=CCN1C(=O)[C@]2(O[C@H](CCn3cc([C@H](O)c4ccccc4)nn3)[C@@H]([Si](C)(C)c3ccc(OC)cc3)[C@@H]2C)c2cc(N3CCC3=O)ccc21
Key: 1.37

Exercise: Repeat with C=C(/C(=C/C[C@H](OC(C)=O)c1ccccc1OCCO)c1cnc2ccccc2c1)C(C)C
Key: 1.12

Exercise: And then C=CCOC(=O)[C@H]1[C@@H]2C(=O)O[C@@H](c3ccccc3)[C@@H](c3ccccc3)N2[C@@H](c2ccc(OCCOC(=O)[C@@H]3C[C@@H]4C(=O)N[C@@H](CC(C)C)C(=O)N4[C@@H]3c3ccc(O)cc3)cc2)[C@]12C(=O)Nc1ccccc12 , what is it?
Key: -1.56

Exercise: Quick one: COC(=O)C(CC#Cc1ccc2c(c1)[C@]1(C(=O)N2)[C@H](C(=O)Nc2nc3ccccc3s2)[C@H]2C(=O)O[C@H](c3ccccc3)[C@H](c3ccccc3)N2[C@@H]1c1ccc(O)cc1)C(=O)OC
Key: -2.25

Exercise: Request: CCCCCN1CC=CC23O[C@@H]4/C=C\CCC(C)OC(=O)C4[C@H]2C(=O)N(C(C)CO)[C@@H]3C1=O (some centres not stated)
Key: 0.157

Exercise: One more compound: COCCOC(=O)N1C(=O)[C@@]2(c3ccccc31)[C@H](c1ccccc1OCCO)N1[C@H](c3ccccc3)[C@H](c3ccccc3)OC(=O)[C@H]1[C@@H]2C(=O)N1CCN(c2ncccn2)CC1
Key: -1.21

Exercise: Next record, please: C=CCOC(=O)[C@@H]1[C@H]2C(=O)O[C@H](c3ccccc3)[C@H](c3ccccc3)N2[C@H](c2ccc(OCCOC(=O)[C@@H]3C[C@@H]4C(=O)NCC(=O)N4[C@@H]3c3ccc(O)cc3)cc2)[C@@]12C(=O)Nc1ccc(I)cc12
Key: -1.73

Exercise: Param item: C=CCC(OC(C)=O)[C@@H]1[C@@H](N(Cc2ccc(-c3ccccc3)cc2)C(=O)c2cccc3ccccc23)c2cc(OCCCO)ccc2N1C(=O)c1ccc(-c2ccccc2)cc1 (some centres not stated)
Key: 1.68

Exercise: C=CC1(C(=O)OC)CC=C(C(=O)OC)CC1 (configuration not stated) ?
Key: 0.263

Exercise: Next: C=CCN1C(=O)[C@]2(O[C@H](CCn3cc([C@H](O)c4ccccc4)nn3)[C@@H]([Si](C)(C)c3ccc(OC)cc3)[C@@H]2C)c2ccccc21
Key: -0.156

Exercise: Same again, this time with COc1ccc([Si](C)(C)[C@H]2[C@H](CCO)O[C@@]3(C(=O)N(Cc4ccc(N(C=O)c5ccccc5)cc4)c4ccccc43)[C@@H]2C)cc1
Key: 0.357

Exercise: Please answer likewise for C=CCNC(=O)[C@H]1[C@@H]2C(=O)O[C@@H](c3ccccc3)[C@@H](c3ccccc3)N2[C@@H](c2ccccc2OCCO)[C@]12C(=O)Nc1ccc(C#CCCO)cc12
Key: 0.582

Exercise: Next up: CC(C)OC(=O)C=C1C[C@@H](c2ccccn2)O[C@@H](c2ccccn2)O1
Key: 0.0752
